Protocol Notes: NCI Yeast Anticancer Drug Screen. Data for the bub3 strain (AID 167)
Particulars: S. cerevisiae bub3 mutant strain, at 50.0 µM, active compounds read high
This is part of a sample that, as a whole, favours compounds with a hit. Of some 79,000 tested, about 15% had one in any assay.
Listed here are molecules together with their documented growth inhibition.
Give your result in % as a bare value.

Here is how some molecules turned out for growth inhibition.
Molecule: CC(C)CCCC(C)[C@H]1CC[C@H]2[C@@H]3CC[C@H]4C[C@@H](CCC=C(c5cc(Cl)c(O)c(C(=O)O)c5)c5cc(Cl)c(O)c(C(=O)O)c5)CC[C@]4(C)[C@H]3CC[C@]12C (some centres not stated) (tested in a mixture with another compound)
Experimental Value: 10.7

Molecule: O=c1c2ccccc2nc(-c2ccccc2)n1/N=C/c1ccccc1[N+](=O)[O-]
Experimental Value: 18.4

Molecule: CCCCC1C(=O)N(c2ccc(S(=O)(=O)Nc3ccccn3)cc2)N(c2ccc(O)c(C(=O)O)c2)C1=O (configuration not stated)
Experimental Value: 34.6

Molecule: O=C1c2ccccc2-c2c1c1ccccc1c(=O)n2CCO
Experimental Value: 51.9

Molecule: COc1ccccc1-c1n[nH]c(-c2ccccc2O)n1
Experimental Value: 22.9

Molecule: CC1OC23CCCCC2C(C#N)(C#N)C1(C#N)C(=N)O3 (configuration not stated)
Experimental Value: -35

Molecule: NC(=S)Nc1[nH]c(=S)nc2c1SC1=N/C(=C\c3ccco3)C(=O)N12
Experimental Value: 33.9

Molecule: C=C(C)C1CC2(C)C(C)CC(OC(=O)/C(C)=C\C)CC2C(OC(=O)/C(C)=C\C)C1O (configuration not stated)
Experimental Value: -1

Molecule: COc1ccc(/C=c2\[nH]c3nc(=O)c(N4CCOCC4)c(N)n3c2=O)cc1
Experimental Value: -26.1

Molecule: CC1CC(=O)N(N(C)C)C(C#N)(C#N)C1(C#N)C#N (configuration not stated)
Experimental Value: 0.8

# ---- query molecule ----
Lab note: O[C@H]1[C@H](O)[C@@H](Cn2nnc(-c3ccccc3)c2-c2ccccc2)OCO[C@@H]1Cn1nnc(-c2ccccc2)c1-c1ccccc1 gave growth inhibition of 28.8
